tested on: 422866-222-R5-J1-PDC spheroids with HUVEC/MSC, viability; test: Anticancer human tumor 422866-222-R5-J1-PDC patient-derived pancreatic adenocarcinoma cell line growth inhibition [GQUAD]; details: curve of first compound; second compound 0.0316 µM;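 further: spheroids exposed to compounds for seven days before reading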
Items are presented alongside their recorded IC50.

Completed entries (count: 6):
>>> observed("CCCS(=O)(=O)Nc1ccc(F)c(C(=O)c2c[nH]c3ncc(-c4ccc(Cl)cc4)cc23)c1F + Cc1cnc(CNC(=O)c2c(=O)c3ccc(N4CCCN(C)CC4)nc3n3c2sc2ccccc23)cn1")
"> 10 µM"
>>> observed("O=C(NO)c1cnc(N2CCN(S(=O)(=O)c3ccc4ccccc4c3)CC2)nc1 + Cc1[nH]c2ccc(F)cc2c1-c1nc2c3cccnc3c3ncccc3c2[nH]1")
"> 10 µM"
>>> observed("Nc1ccn(C2OC(CO)C(O)C2(F)F)c(=O)n1 (stereo not given) + CN(C)c1ccc(Nc2c3ccc(NC(=O)CCN4CCCC4)cc3nc3cc(NC(=O)CCN4CCCC4)ccc23)cc1")
"3.23 µM"
>>> observed("CCc1c2c(nc3ccc(O)cc13)-c1cc3c(c(=O)n1C2)COC(=O)[C@]3(O)CC + Cc1[nH]c2ccc(F)cc2c1-c1nc2c3cccnc3c3ncccc3c2[nH]1")
"0.0025 µM"
>>> observed("COc1ccc([C@@H](O)c2cc(-c3ncnc4cc(N5CCOCC5)ccc34)c(F)cc2Cl)nn1 + CN(C)c1ccc(Nc2c3ccc(NC(=O)CCN4CCCC4)cc3nc3cc(NC(=O)CCN4CCCC4)ccc23)cc1")
"2.85 µM"
>>> observed("COc1cc(C2c3cc4c(cc3C(OC3OC5COC(C)OC5C(O)C3O)C3COC(=O)C23)OCO4)cc(OC)c1O (stereo not given) + Cc1[nH]c2ccc(F)cc2c1-c1nc2c3cccnc3c3ncccc3c2[nH]1")
"1.57 µM"

The reported IC50 of the compound Cc1cccc(N(C)C(=O)C2C(O)CCN2c2nc(C)cc(C(F)(F)F)c2C#N)c1 (stereo not given) + Cc1cnc(CNC(=O)c2c(=O)c3ccc(N4CCCN(C)CC4)nc3n3c2sc2ccccc23)cn1 was > 10 µM

The reported IC50 of the compound C=CC(=O)N1CCN(c2nc(=O)n(-c3c(C)ccnc3C(C)C)c3nc(-c4c(O)cccc4F)c(F)cc23)C(C)C1 (stereo not given) + Cc1cnc(CNC(=O)c2c(=O)c3ccc(N4CCCN(C)CC4)nc3n3c2sc2ccccc23)cn1 was < 0.0316 µM

The reported IC50 of the compound COc1ncnc(C2CC2)c1-c1ncc2cnn(Cc3ccc(-c4nc(C(F)(F)F)cn4C(C)C)cc3)c2n1 + Cc1cnc(CNC(=O)c2c(=O)c3ccc(N4CCCN(C)CC4)nc3n3c2sc2ccccc23)cn1 was > 10 µM

The reported IC50 of the compound CC(=O)O[C@H]1C(=O)[C@@]2(C)[C@H]([C@H](OC(=O)c3ccccc3)[C@]3(O)C[C@H](OC(=O)[C@H](O)[C@@H](NC(=O)c4ccccc4)c4ccccc4)C(C)=C1C3(C)C)[C@]1(OC(C)=O)CO[C@@H]1C[C@@H]2O + CN(C)c1ccc(Nc2c3ccc(NC(=O)CCN4CCCC4)cc3nc3cc(NC(=O)CCN4CCCC4)ccc23)cc1 was > 10 µM

Values compiled from PubChem BioAssay AID2060511.
